Observed GI50 for HCT-15, reported per entry below.
Non-standard residues stand in square brackets, D forms with d. Residues, ends and D or L forms follow the SMILES beside them. ΔPro = O=C(O)[CH]1C=CCN1

In the examples that follow, each entry is paired with its recorded GI50.
[[record]]
compound = "O=c1c2cc(O)ccc2n2nnc3ccc(NCCNCCO)c1c32"
measured_value = "77.8 µM"

[[record]]
compound = "O=C1CC2C=CC(O)C(C1)C2 (centres undefined)"
measured_value = "> 100 µM"

[[record]]
compound = "O=c1ss/c(=N\\c2ccccc2)n1-c1ccccc1"
measured_value = "17.8 µM"

[[record]]
compound = "COc1ccc(C(=C(Cl)c2ccccc2)c2ccc(OC)cc2)cc1"
measured_value = "> 100 µM"

[[record]]
compound = "CN(C)/C=N/CCN1CCOCC1"
measured_value = "> 100 µM"


Query (compound): O=C(O)C1C=CCN1C(=O)C1C=CCN1C(=O)C1C=CCN1 (centres undefined) (H-[ΔPro]-[ΔPro]-[ΔPro]-OH; configuration not given here) ; field requested: GI50
> 100 µM

Request: Oc1ccc(C(O)(c2ccccc2)c2ccccc2)c2ccccc12
1.22 µM

Request: COc1ccccc1/C=C(\NC(=O)c1ccccc1)c1nc2ccc(Cl)cc2[nH]1
30.3 µM

Request: COc1ccc(/C=N/n2c(C)n[nH]c2=O)cc1
> 100 µM

Request: O=C1C=CC=C/C1=C1\N=C(c2ccccc2OCC(=O)c2ccc(Br)cc2)SS1
> 100 µM

Request: NC1=CN2c3ccccc3N(CC(=O)O)C2C=C1 (centres undefined)
> 100 µM

Request: O=C1[C@H]2ON(c3ccccc3)C(c3ccc([N+](=O)[O-])cc3)[C@H]2C(=O)N1c1ccc(Cc2ccc(N3C(=O)[C@@H]4ON(c5ccccc5)C(c5ccc([N+](=O)[O-])cc5)[C@@H]4C3=O)cc2)cc1 (some centres undefined)
> 100 µM

Request: COc1ccccc1OCC(COC(=O)Nc1ccc(C)cc1)OC(=O)Nc1ccc(C)cc1 (centres undefined)
15.8 µM

Request: COc1cc(/C=C2/C[C@H]3[C@@H]4CC=C5C[C@@H](O)CC[C@]5(C)[C@H]4CC[C@]3(C)NC2=O)cc(OC)c1OC
16.3 µM

Request: CC1(C)CC(=O)C2=C(C1)OC1=C(CC(C)(C)CC1=O)C2c1ccccc1Cl (centres undefined)
> 100 µM

Request: N#CC(C(=O)/C(=N\NC(N)=O)C(C#N)c1ccccc1)c1ccccc1 (centres undefined)
> 100 µM

Request: CN1C(=O)C2(C=CC(O)CC2)c2ccccc21 (centres undefined)
> 100 µM

Request: CCOC(=O)C(NC(=O)CC)(Nc1ccccc1F)C(F)(F)F (centres undefined)
> 100 µM
